- ASSAYED TARGET: Integrin alpha-IIb/beta-3 (Homo sapiens, UniProt P05106+P08514)
- Sequence (P05106 27-788 limits assumed): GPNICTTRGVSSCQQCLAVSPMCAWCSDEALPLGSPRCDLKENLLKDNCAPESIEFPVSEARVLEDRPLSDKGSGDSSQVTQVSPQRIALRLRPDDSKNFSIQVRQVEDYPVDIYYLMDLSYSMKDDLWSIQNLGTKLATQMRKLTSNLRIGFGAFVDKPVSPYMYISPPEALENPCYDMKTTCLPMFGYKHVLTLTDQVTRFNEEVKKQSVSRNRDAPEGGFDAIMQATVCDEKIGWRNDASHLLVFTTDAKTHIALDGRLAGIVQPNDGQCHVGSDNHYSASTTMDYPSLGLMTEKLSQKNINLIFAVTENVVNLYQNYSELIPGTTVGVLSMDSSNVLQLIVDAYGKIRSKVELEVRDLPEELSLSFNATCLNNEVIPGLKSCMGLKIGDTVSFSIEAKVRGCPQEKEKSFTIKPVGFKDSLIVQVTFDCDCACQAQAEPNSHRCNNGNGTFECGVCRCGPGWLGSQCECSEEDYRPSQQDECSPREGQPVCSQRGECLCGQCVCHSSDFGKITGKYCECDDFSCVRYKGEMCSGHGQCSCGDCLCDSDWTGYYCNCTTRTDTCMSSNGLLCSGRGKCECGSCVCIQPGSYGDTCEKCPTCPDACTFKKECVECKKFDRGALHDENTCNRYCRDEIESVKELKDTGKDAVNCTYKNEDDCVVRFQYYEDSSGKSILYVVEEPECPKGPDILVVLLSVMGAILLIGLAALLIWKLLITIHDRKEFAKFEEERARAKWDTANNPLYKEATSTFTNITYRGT
- Sequence (P08514 32-887 limits assumed): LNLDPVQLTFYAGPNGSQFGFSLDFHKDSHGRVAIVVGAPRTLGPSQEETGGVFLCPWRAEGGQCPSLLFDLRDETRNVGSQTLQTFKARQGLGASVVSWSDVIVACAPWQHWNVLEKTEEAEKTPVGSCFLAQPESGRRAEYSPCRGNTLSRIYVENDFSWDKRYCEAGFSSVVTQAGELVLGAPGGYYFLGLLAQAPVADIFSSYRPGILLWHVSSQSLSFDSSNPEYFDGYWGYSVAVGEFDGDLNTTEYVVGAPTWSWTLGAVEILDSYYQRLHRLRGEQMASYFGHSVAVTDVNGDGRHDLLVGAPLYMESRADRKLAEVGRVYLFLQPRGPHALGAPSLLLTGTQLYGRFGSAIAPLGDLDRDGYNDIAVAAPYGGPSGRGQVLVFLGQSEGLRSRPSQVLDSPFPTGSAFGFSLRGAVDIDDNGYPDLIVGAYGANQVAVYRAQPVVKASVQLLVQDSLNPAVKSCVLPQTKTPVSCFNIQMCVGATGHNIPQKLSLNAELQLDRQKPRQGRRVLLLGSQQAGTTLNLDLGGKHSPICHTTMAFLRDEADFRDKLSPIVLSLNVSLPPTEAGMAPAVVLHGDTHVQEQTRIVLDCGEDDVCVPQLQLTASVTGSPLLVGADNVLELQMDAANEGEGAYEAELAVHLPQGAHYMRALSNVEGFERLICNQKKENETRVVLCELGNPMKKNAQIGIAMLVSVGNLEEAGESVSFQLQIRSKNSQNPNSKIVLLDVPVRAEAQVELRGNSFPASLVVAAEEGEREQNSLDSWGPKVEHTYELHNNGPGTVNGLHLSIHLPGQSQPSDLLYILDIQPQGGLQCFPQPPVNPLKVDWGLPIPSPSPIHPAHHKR
- Sequence (P08514 891-1039 limits assumed): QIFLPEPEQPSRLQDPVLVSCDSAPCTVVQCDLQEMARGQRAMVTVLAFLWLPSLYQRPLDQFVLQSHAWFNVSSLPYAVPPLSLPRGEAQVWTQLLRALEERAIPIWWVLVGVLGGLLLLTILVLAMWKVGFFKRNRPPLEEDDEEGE
- TEST NAME: Tested for inhibition of the binding of fibrinogen to purified human GPIIb-IIIa in a 96-well format (ELISA assay)
READOUT KIND: IC50 (nM)
Give just the number in nM; leave the unit off.

Solved cases (5 shown):
>>> quantitative_readout("CCCCOC(=O)N[C@@H](CCC(=O)N1CCC2(CC1)CCN(c1ccc(C(=N)N)cc1)C2=O)C(=O)O")
5
>>> quantitative_readout("C[C@H](CC(=O)O)CC(=O)N1CCC2(CC1)CCN(c1ccc(C(=N)N)cc1)C2=O")
5
>>> quantitative_readout("N=C(N)c1ccc(N2CCC3(CCN(C(=O)CC(=O)O)CC3)C2=O)cc1")
15800
>>> quantitative_readout("N=C(N)c1ccc(N2CCC3(CCN(C(=O)COCC(=O)O)CC3)C2=O)cc1")
17
>>> quantitative_readout("NC(=NN1CCOCC1)c1ccc(N2CCC3(CCN(C(=O)CCCC(=O)O)CC3)C2=O)cc1")
4180

Data request: Record request: IC50 value, item N=C(N)c1ccc(N2CCC3(CCN(C(=O)CCCC(=O)O)CC3)C2=O)cc1
Data returned: 4

Data request: Record request: IC50 value, item CC(CC(=O)O)NC(=O)N1CCC2(CC1)CCN(c1ccc(C(=N)N)cc1)C2=O (centres undefined)
Data returned: 4

Data request: Record request: IC50 value, item N=C(N)c1ccc(N2CC3(CCN(C(=O)CCCC(=O)O)CC3)CC2=O)cc1
Data returned: 650

Data request: Record request: IC50 value, item CN1C(=O)N(c2ccc(C(=N)N)cc2)C(=O)C12CCN(C(=O)NC(CC(=O)O)c1ccccc1)CC2 (centres undefined)
Data returned: 50

----------
- ASSAYED TARGET: Integrin alpha-IIb/beta-3 (Homo sapiens, UniProt P05106+P08514)
- TEST NAME: Tested for inhibition of the binding of fibrinogen to purified human GPIIb-IIIa in a 96-well format (ELISA assay)
So basically: is IC50 under 400 nM? Then t. Not under? Then f.

Check out these entries, answers already filled in.
>>> class("CCNC(=N)c1ccc(N2CCC3(CCN(C(=O)CCCC(=O)O)CC3)C2=O)cc1")
"f"
>>> class("CN1C(=O)N(c2ccc(C(=N)N)cc2)C(=O)C12CCN(C(=O)CC(CC(=O)O)c1ccccc1)CC2 (configuration not stated)")
"t"
>>> class("N=C(N)c1ccc(N2CC3(CCN(C(=O)NCCC(=O)O)CC3)CC2=O)cc1")
"t"

Data request: Dear colleague, could you confirm whether IC50 of Cc1ccc(S(=O)(=O)N[C@@H](CNC(=O)N2CCC3(CC2)C(=O)N(c2ccc(C(=N)N)cc2)C(=O)N3C)C(=O)O)cc1 falls below 400 nM? Thanks.
Data returned: t

Data request: Dear colleague, could you confirm whether IC50 of CCOC(=O)COC1CCN(C(=O)[C@H](C)NC(=O)c2ccc(/C(N)=N/O)cc2)CC1 [SIBRAFIBAN] falls below 400 nM? Thanks.
Data returned: t

Data request: Dear colleague, could you confirm whether IC50 of N=C(N)c1ccc(N2C(=O)NC3(CCN(C(=O)NCCC(=O)O)CC3)C2=O)cc1 falls below 400 nM? Thanks.
Data returned: t

Data request: Dear colleague, could you confirm whether IC50 of N=C(N)c1ccc(N2CCC3(CCN(C(=O)CC(CC(=O)O)c4ccccc4)CC3)C2=O)cc1 (configuration not stated) falls below 400 nM? Thanks.
Data returned: t

Data request: Dear colleague, could you confirm whether IC50 of C[C@H](CC(=O)O)NC(=O)N1CCC2(CC1)CCN(c1ccc(C(=N)N)cc1)C2=O falls below 400 nM? Thanks.
Data returned: t

Data request: Dear colleague, could you confirm whether IC50 of CN1C(=O)N(c2ccc(C(=N)N)cc2)C(=O)C12CCN(C(=O)CCCC(=O)O)CC2 falls below 400 nM? Thanks.
Data returned: t

Data request: Dear colleague, could you confirm whether IC50 of CC(C)(COC(=O)N1CCC2(CC1)CC(=O)N(c1ccc(C(=N)N)cc1)C2)C(=O)O falls below 400 nM? Thanks.
Data returned: f
